- assay target: recombinant human NUDT5 (Homo sapiens)
- experiment notes: NUDT5 inhibitor activity by malachite green reporter assay
- Assay type: biochemical
- condition label: Table 4; 6 nM NUDT5, 50 μM ADP-Ribose, 15 minutes at room temperature
metric: log10 IC50 (log10 of the value in nM)
Parameter value (number): base-10 log of IC50 in nM.

Notebook: Cn1c(=O)c2c(nc(N3CCNCC3)n2Cc2nnc(-c3ccc(N4CCNCC4)nc3)o2)n(C)c1=O , log10 IC50 read as 4.46

Notebook: COc1cc(-c2nnc(Cn3c(NCCC(N)=O)nc4c3c(=O)n(C)c(=O)n4C)o2)ccc1C , log10 IC50 read as 2.20

Notebook: Cn1c(=O)c2c(nc(N3CCNCC3)n2Cc2nnc(-c3ccc(C(F)(F)F)cc3)o2)n(C)c1=O , log10 IC50 read as 1.71

Notebook: COc1cc(-c2nnc(Cn3c(SCCNC(C)=O)nc4c3c(=O)n(C)c(=O)n4C)o2)ccc1C , log10 IC50 read as 2.49

Notebook: COc1ccc(-c2nnc(Cn3c(N4CCNCC4)nc4c3c(=O)n(C)c(=O)n4C)o2)cc1 , log10 IC50 read as 2.30

Notebook: Cn1c(=O)c2c(nc(N)n2Cc2nnc(-c3ccc(Cl)c(Cl)c3)o2)n(C)c1=O , log10 IC50 read as 1.22

Notebook: Cn1c(=O)c2c(nc(Cl)n2Cc2nnc(-c3ccc(CS(C)(=O)=O)cc3)o2)n(C)c1=O , log10 IC50 read as 4.79

Notebook: Cn1c(=O)c2c(nc(Cl)n2Cc2nnc(-c3ccc4cc[nH]c4c3)o2)n(C)c1=O , log10 IC50 read as 2.55

Notebook: Cn1c(=O)c2c(nc(N3CCN(CCNC(=O)OC(C)(C)C)CC3)n2Cc2nnc(-c3ccc(Cl)c(Cl)c3)o2)n(C)c1=O , log10 IC50 read as 2.35

Notebook: COc1ccc(CNc2nc3c(c(=O)n(C)c(=O)n3C)n2Cc2nnc(-c3ccc(Cl)c(Cl)c3)o2)c(OC)c1 , log10 IC50 read as 2.26

Notebook: Cn1c(=O)c2c(nc(Cl)n2Cc2cnc(-c3ccc(Cl)cc3)s2)n(C)c1=O , log10 IC50 read as 2.38

Notebook: Cn1c(=O)c2c(nc(N3CCNCC3)n2Cc2nnc(-c3cccc(F)c3)o2)n(C)c1=O , log10 IC50 read as 2.11

Notebook: Cn1c(=O)c2c(nc(NCCS(=O)(=O)O)n2Cc2nnc(-c3ccc(Cl)c(Cl)c3)o2)n(C)c1=O , log10 IC50 read as 2.66

Notebook: Cc1ccc(-c2cc(Cn3c(N4CCNCC4)nc4c3c(=O)n(C)c(=O)n4C)no2)cc1 , log10 IC50 read as 2.72

Notebook: COc1ccc(-c2nnc(Cn3c(Cl)nc4c3c(=O)n(C)c(=O)n4C)o2)cc1Cl , log10 IC50 read as 1.86

Notebook: Cc1ccc(-c2nnc(Cn3c(Cl)nc4c3c(=O)n(C)c(=O)n4C)o2)cn1 , log10 IC50 read as 3.47

Notebook: COc1cc(-c2nnc(Cn3c(N4CCNCC4)nc4c3c(=O)n(C)c(=O)n4C)o2)ccc1Cl , log10 IC50 read as 1.81

Notebook: COc1cc(-c2nnc(Cn3c(N4CCNC(C(F)(F)F)C4)nc4c3c(=O)n(C)c(=O)n4C)o2)ccc1C (stereo not shown) , log10 IC50 read as 2.96

Notebook: Cn1c(=O)c2c(nc(Cl)n2Cc2nnc(-c3ccc([N+](=O)[O-])cc3)o2)n(C)c1=O , log10 IC50 read as 3.18

Notebook: COc1cc(-c2nnc(Cn3c(N4CCC(N(C)C)CC4)nc4c3c(=O)n(C)c(=O)n4C)o2)ccc1C , log10 IC50 read as 1.59

Notebook: COc1cccc(-c2nnc(Cn3c(N4CCNCC4)nc4c3c(=O)n(C)c(=O)n4C)o2)c1 , log10 IC50 read as 2.08

Notebook: Cn1c(=O)c2c(nc(N3CCNCC3)n2Cc2cn(-c3ccc(Cl)c(Cl)c3)nn2)n(C)c1=O , log10 IC50 read as 2.19

Notebook: Cn1c(=O)c2c(nc(N3CCNCC3)n2Cc2coc(-c3ccc(Cl)c(Cl)c3)n2)n(C)c1=O , log10 IC50 read as 1.32

Notebook: COc1cc(-c2nnc(Cn3c(Cl)nc4c3c(=O)n(C)c(=O)n4C)o2)ccc1Cl , log10 IC50 read as 2.58

Notebook: Cn1c(=O)c2c(nc(Cl)n2Cc2cn(-c3ccc(Cl)c(Cl)c3)nn2)n(C)c1=O , log10 IC50 read as 4.15

Notebook: Cn1c(=O)c2c(nc(N3CCNCC3)n2Cc2nnc(-c3ccc4cc[nH]c4c3)o2)n(C)c1=O , log10 IC50 read as 1.91

Notebook: COc1cc(-c2nnc(Cn3c(N(C)CCN(C)C)nc4c3c(=O)n(C)c(=O)n4C)o2)ccc1C , log10 IC50 read as 1.38

Notebook: Cn1c(=O)c2c(nc(N3CCC(CNC(=O)OC(C)(C)C)CC3)n2Cc2nnc(-c3ccc(Cl)c(Cl)c3)o2)n(C)c1=O , log10 IC50 read as 1.53

Notebook: Cn1c(=O)c2c(nc(N3CCNCC3)n2Cc2nc(-c3ccc(Cl)cc3)no2)n(C)c1=O , log10 IC50 read as 1.76

Notebook: Cn1c(=O)c2c(nc(Cl)n2Cc2nnc(-c3cccc(F)c3)o2)n(C)c1=O , log10 IC50 read as 3.33

Notebook: Cn1c(=O)c2c(nc(N3CCNCC3)n2Cc2nnc(-c3ccc([N+](=O)[O-])cc3)o2)n(C)c1=O , log10 IC50 read as 2.46
